Conditions: 313.15 K; 101 kPa; Liquid
QUANTITY_NAME: speed of sound (m/s)
State just the number; it will be interpreted in m/s.

Form: compound = CNC(C)=O [N-methylacetamide] ; speed of sound = 1334

Form: compound = CCOC(=O)CC#N [ethyl cyanoacetate] ; speed of sound = 1368

Form: compound = CCOC(C)=O [ethyl acetate] ; speed of sound = 1081

Form: compound = CCOC(=O)CCl [ethyl chloroethanoate] ; speed of sound = 1198

---

Give mass density for every item shown.
Details: 318.15 K; 101 kPa; Liquid
State just the number; it will be interpreted in kg/m3.

Form: molecule = CNC(C)=O [N-methylacetamide] ; mass density = 939.9

Form: molecule = CCOC(=O)CC#N [ethyl cyanoacetate] ; mass density = 1034.7

Form: molecule = CCOC(C)=O [ethyl acetate] ; mass density = 869.6

Form: molecule = CCOC(=O)CCl [ethyl chloroethanoate] ; mass density = 1119.9
